B1: Lysine-specific demethylase 2B, residues 656 to 722; numbered along this chain, Q8NHM5 (parent)
chain: LPHTAVCLVCGEAGKEDTVEEEEGKFNLMLMECSICNEIIHPGCLKIKESEGVVNDELPNCWECPKC

Variants of: B1
Assay: abundance fitness (aPCA) (normalised: wild type 0, dead -1); higher = more abundant; growth selection in yeast, the domain comes from the species named
Conditions: Homo sapiens
Recorded abundance fitness values for a group of variants are listed next.
Just the number.

Consider the worked cases shown below.
L1N ... 1.01
E51T ... 0.072
N55Y ... -0.386
T18M ... -0.092
L45T ... -0.085
V54G ... -0.182

Lookup: Quick one: abundance fitness for `G52Q` ?
Found: -0.094

Lookup: Quick one: abundance fitness for `L45G` ?
Found: -0.114

Lookup: Quick one: abundance fitness for `K46R` ?
Found: 0.016
